Assay: Phase I pharmacokinetics after single IV bolus
Type: in vivo
Conditions: both sexes, human, plasma, iv, 0.1 mg/kg, single IV bolus 0.10 mg/kg (n = 6), read-out: CL (clearance), Geometric Mean
RESULT_TYPE: clearance (mL/min)
Number only, in mL/min; omit the unit.

clearance for COc1ccc(C[C@@H]2c3cc(OC)c(OC)cc3CC[N@@+]2(C)CCCOC(=O)/C=C/C(=O)OCCC[N@+]2(C)CCc3cc(OC)c(OC)cc3[C@H]2Cc2ccc(OC)c(OC)c2)cc1OC.[Cl-].[Cl-] is 438

---

Assay: Phase I pharmacokinetics after single IV bolus
Format: in vivo
Conditions: both sexes, human, plasma, iv, 0.14 mg/kg, single IV bolus 0.14 mg/kg (n = 4), read-out: Cmax, Mean
RESULT_TYPE: Cmax
Please report the result as a number followed by the unit.

Measured Cmax, COc1ccc(C[C@@H]2c3cc(OC)c(OC)cc3CC[N@@+]2(C)CCCOC(=O)/C=C/C(=O)OCCC[N@+]2(C)CCc3cc(OC)c(OC)cc3[C@H]2Cc2ccc(OC)c(OC)c2)cc1OC.[Cl-].[Cl-] [RP1000] : 10300 ng/mL

---

Assay: Phase I pharmacokinetics after single IV bolus
Type: in vivo
Conditions: both sexes, human, plasma, iv, 0.04 mg/kg, single IV bolus 0.04 mg/kg (n = 6), read-out: CL (clearance), Geometric Mean
RESULT_TYPE: clearance

For COc1ccc(C[C@@H]2c3cc(OC)c(OC)cc3CC[N@@+]2(C)CCCOC(=O)/C=C/C(=O)OCCC[N@+]2(C)CCc3cc(OC)c(OC)cc3[C@H]2Cc2ccc(OC)c(OC)c2)cc1OC.[Cl-].[Cl-] the compound record lists clearance as 387 mL/min

---

Assay: Phase I pharmacokinetics after single IV bolus
Type: in vivo
Conditions: both sexes, human, plasma, iv, 0.08 mg/kg, single IV bolus 0.08 mg/kg (n = 6), read-out: t1/2 (terminal elimination half-life), Mean (SD)
RESULT_TYPE: half-life (min)
The reply should contain only the number, in min.

Form field half-life, entry COc1ccc(C[C@@H]2c3cc(OC)c(OC)cc3CC[N@@+]2(C)CCCOC(=O)/C=C/C(=O)OCCC[N@+]2(C)CCc3cc(OC)c(OC)cc3[C@H]2Cc2ccc(OC)c(OC)c2)cc1OC.[Cl-].[Cl-] : 27

---

Assay: Phase I pharmacokinetics after single IV bolus
Format: in vivo
Settings: both sexes, human, plasma, iv, 0.14 mg/kg, single IV bolus 0.14 mg/kg (n = 4), read-out: CL (clearance), Mean (SD)
RESULT_TYPE: clearance (mL/min)
Just the number in mL/min, nothing appended.

Record summary for COc1ccc(C[C@@H]2c3cc(OC)c(OC)cc3CC[N@@+]2(C)CCCOC(=O)/C=C/C(=O)OCCC[N@+]2(C)CCc3cc(OC)c(OC)cc3[C@H]2Cc2ccc(OC)c(OC)c2)cc1OC.[Cl-].[Cl-] : reported clearance = 368

---

Test: Phase I pharmacokinetics after single IV bolus
Type: in vivo
Conditions: both sexes, human, plasma, iv, 0.08 mg/kg, single IV bolus 0.08 mg/kg (n = 6), read-out: Vss (volume at steady state), Geometric Mean
RESULT_TYPE: Vd (L)
Only the number, expressed in L, is required.

Please fill in: Vd reported for COc1ccc(C[C@@H]2c3cc(OC)c(OC)cc3CC[N@@+]2(C)CCCOC(=O)/C=C/C(=O)OCCC[N@+]2(C)CCc3cc(OC)c(OC)cc3[C@H]2Cc2ccc(OC)c(OC)c2)cc1OC.[Cl-].[Cl-] [RP1000] = 9.58
